# credit: ChEMBL document CHEMBL4825671

Target: Plasma kallikrein (Homo sapiens)
Sequence (P03952 20-390 limits assumed): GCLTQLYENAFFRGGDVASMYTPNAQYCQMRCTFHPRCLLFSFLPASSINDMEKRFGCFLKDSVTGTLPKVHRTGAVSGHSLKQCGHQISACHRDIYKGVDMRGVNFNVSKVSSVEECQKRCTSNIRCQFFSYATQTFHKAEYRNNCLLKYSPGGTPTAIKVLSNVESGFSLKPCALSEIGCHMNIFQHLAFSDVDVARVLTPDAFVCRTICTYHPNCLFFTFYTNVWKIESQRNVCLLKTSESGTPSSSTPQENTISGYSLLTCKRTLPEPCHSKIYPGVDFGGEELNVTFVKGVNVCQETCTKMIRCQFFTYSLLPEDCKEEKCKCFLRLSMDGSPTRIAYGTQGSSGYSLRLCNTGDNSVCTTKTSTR
Sequence (P03952 391-638 limits assumed): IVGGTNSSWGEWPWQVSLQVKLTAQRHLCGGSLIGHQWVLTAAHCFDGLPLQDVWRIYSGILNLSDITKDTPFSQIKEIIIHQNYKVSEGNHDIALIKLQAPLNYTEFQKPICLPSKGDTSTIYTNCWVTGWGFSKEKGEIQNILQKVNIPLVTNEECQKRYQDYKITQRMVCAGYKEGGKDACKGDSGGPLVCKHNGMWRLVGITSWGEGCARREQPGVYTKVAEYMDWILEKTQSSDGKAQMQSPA
Test: Binding affinity to plasma kallikrein (unknown origin) assessed as inhibition constant using D-Pro-Phe,Arg,pNa,2HCl as substrate preincubated for 15 mins followed by substrate addition
property: Ki
# do not omit the unit; it follows the number

What Ki value was documented for this compound, Cc1nc(-c2cccc(Cl)c2F)n(O)c1C(=O)N[C@@H](Cc1ccc(NC(=O)C2CC2C)cc1)C(=O)Nc1ccc2[nH]c(C(=O)O)cc2c1 (stereo partly specified) ?
192 nM

###

Target: Coagulation factor XI (Homo sapiens)
Sequence (P03951 19-387 limits assumed): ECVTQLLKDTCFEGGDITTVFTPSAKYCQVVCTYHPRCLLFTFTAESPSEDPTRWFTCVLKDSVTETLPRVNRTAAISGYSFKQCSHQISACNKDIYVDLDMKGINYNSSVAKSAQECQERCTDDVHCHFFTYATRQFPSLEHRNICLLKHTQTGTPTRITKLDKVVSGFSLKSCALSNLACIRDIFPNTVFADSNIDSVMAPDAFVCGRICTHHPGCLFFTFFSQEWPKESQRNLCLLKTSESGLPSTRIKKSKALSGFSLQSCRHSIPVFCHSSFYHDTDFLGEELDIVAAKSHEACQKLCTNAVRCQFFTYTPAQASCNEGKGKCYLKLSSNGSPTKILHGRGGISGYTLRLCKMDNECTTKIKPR
Sequence (P03951 388-625 limits assumed): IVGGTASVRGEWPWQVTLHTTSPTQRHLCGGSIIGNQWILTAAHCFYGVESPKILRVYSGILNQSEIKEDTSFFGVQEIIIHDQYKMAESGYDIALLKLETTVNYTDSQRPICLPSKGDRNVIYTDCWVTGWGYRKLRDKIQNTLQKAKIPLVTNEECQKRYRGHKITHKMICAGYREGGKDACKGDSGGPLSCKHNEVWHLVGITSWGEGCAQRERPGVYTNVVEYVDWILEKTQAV
Test: Inhibition of coagulation factor 11a (unknown origin) at 100 uM using (p-Glu-Pro-Arg-pNa,HCl) as substrate preincubated for 5 mins followed by substrate addition and measured after 10 mins relative to control
Details: time 15.0 min
property: inhibition
# do not omit the unit; it follows the number

- smiles representation: "Cc1nc(-c2ccc(Cl)cc2)n(O)c1C(=O)N[C@@H](Cc1ccccc1)C(=O)Nc1ccc(C(=O)O)cc1"
  inhibition: "22.5%"
- smiles representation: "Cc1nc(-c2ccccc2Cl)n(O)c1C(=O)N[C@@H](Cc1ccccc1)C(=O)Nc1ccc(C(=O)O)cc1"
  inhibition: "34.1%"
- smiles representation: "Cc1nc(-c2ccccc2C#N)n(O)c1C(=O)N[C@@H](Cc1ccccc1)C(=O)Nc1ccc(C(=O)O)cc1"
  inhibition: "16.4%"
- smiles representation: "COn1c(-c2cccc(Cl)c2F)nc(C)c1C(=O)N[C@@H](Cc1ccccc1)C(=O)Nc1ccc(C(=O)O)cc1"
  inhibition: "0%"

Switching to the query record.
Missing value: inhibition, Coagulation factor XI (Homo sapiens), entry Cc1nc(-c2ccc(C#N)cc2)n(O)c1C(=O)N[C@@H](Cc1ccccc1)C(=O)Nc1ccc(C(=O)O)cc1 . Fill in?
0%
